Biological target: Adenosine receptor A2a (Homo sapiens, UniProt P29274)
Sequence (P29274 whole entry): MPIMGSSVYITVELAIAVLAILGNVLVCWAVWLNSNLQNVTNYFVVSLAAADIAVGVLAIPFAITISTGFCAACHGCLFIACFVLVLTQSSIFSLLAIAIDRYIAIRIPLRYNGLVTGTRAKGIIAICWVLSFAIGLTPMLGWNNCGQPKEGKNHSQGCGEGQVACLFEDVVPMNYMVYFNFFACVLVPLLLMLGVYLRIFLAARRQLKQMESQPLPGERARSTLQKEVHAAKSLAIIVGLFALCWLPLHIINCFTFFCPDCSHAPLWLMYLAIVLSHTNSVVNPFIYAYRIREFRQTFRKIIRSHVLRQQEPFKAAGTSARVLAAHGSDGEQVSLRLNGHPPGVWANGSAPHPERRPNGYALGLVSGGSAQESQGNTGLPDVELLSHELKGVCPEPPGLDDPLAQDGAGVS
Assay: Agonist activity at human adenosine A2A receptor expressed in FlpIn-CHO cells assessed as inhibition of forskolin-induced cAMP accumulation after 30 mins by fluorescence assay
pEC50: −log10 of the molar value.
Property Name: pEC50

Observe how each entry below is paired with its result.
- Input Smiles: "CNC(=O)[C@H]1O[C@@H](n2cnc3c(NCCc4ccccc4)nc(N)nc32)[C@H](O)[C@@H]1O"
  pEC50: 7.10
- Input Smiles: "CNC(=O)[C@H]1O[C@@H](n2cnc3c(NCC(c4ccccc4)c4ccccc4)nc(N)nc32)[C@H](O)[C@@H]1O"
  pEC50: 6.10
- Input Smiles: "CNC(=O)[C@H]1O[C@@H](n2cnc3c(NC4CCC4)nc(N)nc32)[C@H](O)[C@@H]1O"
  pEC50: 5.60

(I) CNC(=O)[C@H]1O[C@@H](n2cnc3c(NCc4ccccc4)nc(N)nc32)[C@H](O)[C@@H]1O
(II) CNC(=O)[C@H]1O[C@@H](n2cnc3c(NCc4cccc(Cl)c4)nc(N)nc32)[C@H](O)[C@@H]1O
Two entries are listed, I and II . Which one carries the higher pEC50? // respond with label for picked entry II

====

Organism: Homo sapiens
Assay: Selectivity ratio; ratio of pEC50 for human adenosine A2A receptor to pEC50 for human adenosine A3 receptor
Property Name: Selectivity ratio

- Input Smiles: "CNC(=O)[C@H]1O[C@@H](n2cnc3c(NCc4ccccc4)nc(N)nc32)[C@H](O)[C@@H]1O"
  Selectivity ratio: 100
- Input Smiles: "CNC(=O)[C@H]1O[C@@H](n2cnc3c(NC4CCC4)nc(N)nc32)[C@H](O)[C@@H]1O"
  Selectivity ratio: 501

(1) CNC(=O)[C@H]1O[C@@H](n2cnc3c(NCC(c4ccccc4)c4ccccc4)nc(N)nc32)[C@H](O)[C@@H]1O
(2) CNC(=O)[C@H]1O[C@@H](n2cnc3c(NCCc4ccccc4)nc(N)nc32)[C@H](O)[C@@H]1O
Two entries are listed, 1 and 2 . Which one carries the higher Selectivity ratio? // respond with label for picked entry 1
(1: 158, 2: 20)

====

Target: Adenosine receptor A3 (Homo sapiens)
Sequence (P0DMS8 whole entry): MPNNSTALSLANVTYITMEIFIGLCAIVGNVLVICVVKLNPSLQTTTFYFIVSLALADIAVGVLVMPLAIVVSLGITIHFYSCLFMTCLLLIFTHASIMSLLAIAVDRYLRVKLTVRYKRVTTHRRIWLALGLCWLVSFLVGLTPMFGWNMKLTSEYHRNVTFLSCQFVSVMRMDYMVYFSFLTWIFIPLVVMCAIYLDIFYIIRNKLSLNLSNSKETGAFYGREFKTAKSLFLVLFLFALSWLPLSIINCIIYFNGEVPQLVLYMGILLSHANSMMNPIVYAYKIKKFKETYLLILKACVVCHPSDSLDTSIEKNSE
Assay: Agonist activity at human adenosine A3 receptor expressed in FlpIn-CHO cells assessed as inhibition of forskolin-induced cAMP accumulation after 30 mins by fluorescence assay
Property Name: EC50 (nM)

Observe how each entry below is paired with its result.
- Input Smiles: "CCNc1nc(N)nc2c1ncn2[C@@H]1O[C@H](C(=O)NC)[C@@H](O)[C@H]1O"
  Property Name: "EC50"
  Observed Measurement: 10
- Input Smiles: "CNC(=O)[C@H]1O[C@@H](n2cnc3c(NCc4cccc(Cl)c4)nc(N)nc32)[C@H](O)[C@@H]1O"
  Property Name: "EC50"
  Observed Measurement: 0.631
- Input Smiles: "CNC(=O)[C@H]1O[C@@H](n2cnc3c(NCc4ccccc4)nc(N)nc32)[C@H](O)[C@@H]1O"
  Property Name: "EC50"
  Observed Measurement: 31.6
- Input Smiles: "CNC(=O)[C@H]1O[C@@H](n2cnc3c(NCc4cccc(I)c4)nc(N)nc32)[C@H](O)[C@@H]1O"
  Property Name: "EC50"
  Observed Measurement: 1.58
- Input Smiles: "CCNc1nc(NC2CCCC2)c2ncn([C@@H]3O[C@H](C(=O)NC)[C@@H](O)[C@H]3O)c2n1"
  Property Name: "EC50"
  Observed Measurement: 39.8
- Input Smiles: "CNC(=O)[C@H]1O[C@@H](n2cnc3c(NCCc4ccccc4)nc(N)nc32)[C@H](O)[C@@H]1O"
  Property Name: "EC50"
  Observed Measurement: 3.98

(1) CNC(=O)[C@H]1O[C@@H](n2cnc3c(NC4CCCC4)nc(NC)nc32)[C@H](O)[C@@H]1O
(2) CNC(=O)[C@H]1O[C@@H](n2cnc3c(NC4CCCC4)nc(N)nc32)[C@H](O)[C@@H]1O
Two entries are listed, 1 and 2 . Which one carries the higher EC50? // respond with label for picked entry 1
(1: 100 nM, 2: 15.8 nM)

(P) CNC(=O)[C@H]1O[C@@H](n2cnc3c(NC4CCCCC4)nc(N)nc32)[C@H](O)[C@@H]1O
(Q) CNC(=O)[C@H]1O[C@@H](n2cnc3c(NC4CCCC4)nc(N(C)C)nc32)[C@H](O)[C@@H]1O
Parameter metric = EC50. Return the lower-valued option from P and Q . // respond with label for picked entry P

(I) CNC(=O)[C@H]1O[C@@H](n2cnc3c(NC4CCC4)nc(N)nc32)[C@H](O)[C@@H]1O
(II) CCCCNc1nc(N)nc2c1ncn2[C@@H]1O[C@H](C(=O)NC)[C@@H](O)[C@H]1O
Two entries are listed, I and II . Which one carries the higher EC50? // respond with label for picked entry II

(1) CNC(=O)[C@H]1O[C@@H](n2cnc3c(NCC(c4ccccc4)c4ccccc4)nc(N)nc32)[C@H](O)[C@@H]1O
(2) CCCNc1nc(N)nc2c1ncn2[C@@H]1O[C@H](C(=O)NC)[C@@H](O)[C@H]1O
Parameter metric = EC50. Return the lower-valued option from 1 and 2 . // respond with label for picked entry 1
(1: 5.01 nM, 2: 10 nM)

(a) CNC(=O)[C@H]1O[C@@H](n2cnc3c(NC)nc(N)nc32)[C@H](O)[C@@H]1O
(b) CCN(CC)c1nc(NC2CCCC2)c2ncn([C@@H]3O[C@H](C(=O)NC)[C@@H](O)[C@H]3O)c2n1
Two entries are listed, a and b . Which one carries the higher EC50? // respond with label for picked entry b
